Molecular target: human GLP-1 receptor (human, UniProt P43220 24-463)
Experiment: cell-based or functional assay
Where no end group is shown, it is not given here. [ ]: non-standard residue; d: D form. Bip(2'-Et-4'-OMe) = CCc1cc(OC)ccc1-c1ccc(C[C@H](N)C(=O)O)cc1; αMePhe(2,6-F2) = C[C@](N)(Cc1c(F)cccc1F)C(=O)O; αMePhe(2-F) = C[C@](N)(Cc1ccccc1F)C(=O)O; αMeBip(OMe) = alpha-methylated Bip(OMe); hhPhe = N[C@@H](CCCc1ccccc1)C(=O)O; αMeD = C[C@](N)(CC(=O)O)C(=O)O; αMeAPPA = not defined here; αMeS = C[C@](N)(CO)C(=O)O; Aib = CC(C)(N)C(=O)O
quantity-measured: cAMP release, % activity with respect to control, at 10 nM

# binder, result
measured = [
    ("VH[Aib]EGT[αMePhe(2,6-F2)]T[αMeS][αMeD][Bip(2'-Et-4'-OMe)][αMeAPPA] (not fully specified (C-terminus); reading uncertain) [Seq. ID. No. 129]", "86 % of control"),
    ("VHSQGT[αMePhe(2-F)]TSD[Bip(2'-Et-4'-OMe)][αMeAPPA] (not fully specified (C-terminus); printed as VHSQGT-(αMe-2FPhe)-TSD-Bip(OMe)-(αMe-APPA); reading uncertain) [Seq. ID. No. 91]", "99 % of control"),
    ("VVHAQGT[αMePhe(2,6-F2)]TSD[αMeBip(OMe)][hhPhe]-NH2 [Seq. ID. No. 222]", "78 % of control"),
]

These entries and their values trace back to patent US20120264685A1.
